Just for reference, paper PMC9964746 is where these values come from.

- Test Target: CCK1R (Homo sapiens, UniProt P32238)
- Sequence (P32238 whole entry): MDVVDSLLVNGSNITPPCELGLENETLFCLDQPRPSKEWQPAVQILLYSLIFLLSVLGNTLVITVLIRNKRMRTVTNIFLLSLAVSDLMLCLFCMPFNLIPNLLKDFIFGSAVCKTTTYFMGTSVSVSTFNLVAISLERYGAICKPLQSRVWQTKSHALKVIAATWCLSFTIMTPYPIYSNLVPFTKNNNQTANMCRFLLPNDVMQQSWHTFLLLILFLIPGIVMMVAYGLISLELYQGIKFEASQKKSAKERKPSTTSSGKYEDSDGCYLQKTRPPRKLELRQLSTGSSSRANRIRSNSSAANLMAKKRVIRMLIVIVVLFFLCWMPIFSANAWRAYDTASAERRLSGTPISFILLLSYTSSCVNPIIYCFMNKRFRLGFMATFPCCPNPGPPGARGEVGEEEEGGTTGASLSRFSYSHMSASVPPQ
- Assay Protocol: IP-One accumulation TR-FRET assay, PAM format, HEK-293 CCK1R cells
- Type: cell-based
- Parameters: expressed in transfected cells; host or cells: HEK-293
- Study Conditions: HEK-293 CCK1R cells, PAM format with EC20 CCK; average ± SD
- Protocol: For structure–activity relationship studies, we performed myo-inositol-1-phosphate (IP-One) accumulation assays with TR-FRET technology applied to the HEK-293 cell line overexpressing CCK1Rs, as we had described in our high throughput screening effort. […] Detection reagents from the IP-One Gq detection kit from Cisbio (Cisbio US Inc., Bedford, MA, USA, #62IPAPEJ) were added, and after 1 h at RT, IP-One content was measured with a PHERAstar FSX microplate reader (BMG Labtech, Ortenberg, Germany). […]
pEC50: −log10 of the molar value.
Known pEC50 of a selection of compounds
Metric: pEC50

* CC(C)Cc1nc2oc3c(NCCN(C)C)ncnc3c2c2c1CCCC2 | 4.84
* CC(C)Cc1nc2sc3c(NCCN4CCOCC4)ncnc3c2c2c1CCCC2 | 4.54
* CCCCc1nc2sc3c(NCCCO)ncnc3c2c2c1CCC2 | 5.12
* CN(C)CCNc1ncnc2c1sc1nc(N3CCCCC3)c3c(c12)CCCC3 | 4.50
* CCCc1nc2sc3c(NCCCN(C)C)ncnc3c2c2c1CCCC2 | 4.90
* CC(C)Cc1nc2oc3c(N4CCNCC4)ncnc3c2c2c1CCCC2 | 4.75
* CN(C)CCNc1ncnc2c1sc1nc(-c3ccccc3)c3c(c12)CCCC3 | 5.05
* CN(C)CCCNc1nnnc2c1sc1nc(N3CCOCC3)c3c(c12)CCCC3 | 4.64
* CC(C)Cc1nc2oc3c(NCCCN(C)C)ncnc3c2c2c1CCC2 | 4.95
* NCCNc1ncnc2c1sc1nc(N3CCCCC3)c3c(c12)CCCC3 | 4.91
* CCCc1nc2sc3c(SC)ncnc3c2c2c1CCCC2 | 5.12
* CCCc1nc2sc3c(NCCN(CC)CC)ncnc3c2c2c1CCCC2 | 5.10
* CCCc1nc2oc3c(N4CCNCC4)ncnc3c2c2c1CCCC2 | 4.85
* CCCCc1nc2sc3c(NCCN4CCOCC4)ncnc3c2c2c1CCCC2 | 4.62
* CCCc1nc2oc3c(NCCCN(C)C)ncnc3c2c2c1CCCC2 | 5.02
* CCN(CC)CCNc1ncnc2c1sc1nc(N3CCCCC3)c3c(c12)CCCC3 | 4.86
* CCN(CC)CCNc1ncnc2c1sc1nc(-c3ccccc3)c3c(c12)CCCC3 | 5.04
* CCCc1nc2oc3c(N4CCN(CCO)CC4)ncnc3c2c2c1CCCC2 | 4.57
* CCN(CC)CCNc1ncnc2c1sc1nc(N3CCOCC3)c3c(c12)CCCC3 | 4.89
* CCCc1nc2oc3c(NCCCN(CC)CC)ncnc3c2c2c1CCCC2 | 5.48

###

- Test Target: vasopressin-2 receptor (AVP2R) (Homo sapiens)
- Construct: expressed in transfected cells; host or cells: CHO-K1 (PAM format); HEK-293 (agonist format)
- Sequence (P30518 whole entry): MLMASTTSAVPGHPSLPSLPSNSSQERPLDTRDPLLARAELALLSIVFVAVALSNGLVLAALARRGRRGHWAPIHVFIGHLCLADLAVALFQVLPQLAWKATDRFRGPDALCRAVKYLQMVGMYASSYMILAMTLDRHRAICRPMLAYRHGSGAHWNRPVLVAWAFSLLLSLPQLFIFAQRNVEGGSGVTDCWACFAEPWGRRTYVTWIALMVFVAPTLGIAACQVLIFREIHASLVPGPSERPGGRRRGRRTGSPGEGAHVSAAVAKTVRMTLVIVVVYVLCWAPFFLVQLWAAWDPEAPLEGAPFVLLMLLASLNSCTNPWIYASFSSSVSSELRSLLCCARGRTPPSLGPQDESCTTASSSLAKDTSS
- Assay Protocol: AVP2R cAMP HTRF accumulation assay
- Format: cell-based
- Study Conditions: CHO-K1 AVP2R cells, PAM format
Known AVP2R PAM (cAMP) Score (activity score = normalized Emax × pEC50) of a selection of compounds
Metric: AVP2R PAM (cAMP) Score (activity score = normalized Emax × pEC50)

• O=C(CSc1ncnc2c1sc1nc(N3CCOCC3)c3c(c12)CCCC3)NCc1ccco1 [CMP-65] = 4.78
• COc1ccc(CCNc2ncnc3c2oc2nc(C(C)C)c4c(c23)CCC4)cc1OC [CMP-62] = 0
• c1nc(N2CCCC2)c2sc3nc(N4CCOCC4)c4c(c3c2n1)CCCC4 [CMP-64] = 0
• OCCN1CCN(c2ncnc3c2sc2nc(-c4ccccc4)c4c(c23)CCC4)CC1 [CMP-37] = 0
• CCCCc1nc2sc3c(NCCN4CCOCC4)ncnc3c2c2c1CCCC2 [CMP-32] = 1.67
• CC(C)Cc1nc2oc3c(N4CCNCC4)ncnc3c2c2c1CCCC2 [CMP-15] = 2.97
• CCCc1nc2sc3c(NCCCO)ncnc3c2c2c1CCC2 [CMP-56] = 0
• CCCc1nc2oc3c(NN)ncnc3c2c2c1CCCC2 [CMP-53] = 2.95
• CC(Sc1ncnc2c1sc1nc(N3CCOCC3)c3c(c12)CCCC3)C(=O)O (stereo not shown) [CMP-59] = 0.93
• NNc1ncnc2c1sc1nc(N3CCOCC3)c3c(c12)CCCC3 [CMP-51] = 0
• COc1ccc(NC(=O)CSc2ncnc3c2sc2nc(N4CCOCC4)c4c(c23)CCCC4)cc1 [CMP-40] = 5.33
• CCCc1nc2oc3c(NCCCN(CC)CC)ncnc3c2c2c1CCCC2 [CMP-36] = 1.41
• c1ccc(CCNc2ncnc3c2sc2nc(N4CCOCC4)c4c(c23)CCCC4)cc1 [CMP-42] = 0
• CCCc1nc2oc3c(N(C)CCO)ncnc3c2c2c1CCCC2 [CMP-39] = 0
• O=C(O)CSc1ncnc2c1sc1nc(N3CCOCC3)c3c(c12)CCCC3 [CMP-45] = 1.46
• CCN(CC)c1ncnc2c1sc1nc(N3CCOCC3)c3c(c12)CCCC3 [CMP-46] = 0
